assay: Inhibition of Enterovirus D68 US/KY/14-18953 2A protease expressed in Escherichia coli BL21(DE3) using Dabcyl-KIRIVNT/GPGEGGE-Edans as substrate incubated for 2 hrs by FRET assay
pIC50: −log10 of the molar value.
readout: pIC50

// below: answered compounds
{"compound": "CCC[C@H](NC(=O)[C@@H]1[C@H]2CCC[C@H]2CN1C(=O)[C@@H](NC(=O)CC1CCC(F)(F)CC1)C(C)(C)C)C(=O)C(=O)NC1CC1", "result": 6.85}
{"compound": "CC(C)(C)[C@H](NC(=O)CC12CC3CC(CC(C3)C1)C2)C(=O)N1C[C@@H]2CCC[C@@H]2[C@H]1C(=O)N[C@H](C=O)Cc1ccc(F)cc1", "result": 5.74}
{"compound": "CCC[C@H](NC(=O)[C@@H]1[C@H]2CCC[C@H]2CN1C(=O)[C@@H](NC(=O)CC1C2CC3CC(C2)CC1C3)C(C)(C)C)C(=O)C(=O)NC1CC1 (stereo partly specified)", "result": 6.92}

P: CCC[C@H](NC(=O)[C@@H]1[C@H]2CCC[C@H]2CN1C(=O)[C@@H](NC(=O)CC1CCCC1)C(C)(C)C)C(=O)C(=O)NC1CC1
Q: CCC[C@H](NC(=O)[C@@H]1[C@H]2CCC[C@H]2CN1C(=O)[C@@H](NC(=O)/C=C/c1ccccc1)C(C)(C)C)C(=O)C(=O)NC1CC1
R: CCC[C@H](NC(=O)[C@@H]1[C@H]2CCC[C@H]2CN1C(=O)OCc1ccccc1)C(=O)C(=O)NC1CC1
Task: Please list these in order of increasing pIC50. Thank you! Output spec: labels arranged per the requested ranking.
Result: R, Q, P
(R: 5.36, Q: 6.12, P: 7.00)

Data origin, for the record: ChEMBL document CHEMBL5370639
